# run description: Inhibition of drug-resistant reverse transcriptase […] mutant
# Design: species or system Human immunodeficiency virus 1
endpoint name: pIC50
Expect pIC50 as a plain number equal to -log10 of the molar concentration.

NC(=O)c1[nH]cnc1-c1ccc(Cl)c(Br)c1    4.58

Exercise: For N#CCC(=O)Cc1cccc(I)c1 , what is its reported pIC50?
Solution: 5.00

====

# run description: Cytotoxicity against Jurkat cells by XTT assay
# Format: cell-based
# applied conditions: human
endpoint name: CC50

NC(=O)c1sc(N)nc1-c1cccc(-c2ccccc2)c1    244 µM
N#CCC(=O)c1cccc(Cl)c1    > 312 µM
NC(=O)CC(=O)c1cccc(I)c1    > 312 µM
CCOP(=O)(OCC)Oc1cccc(C(=O)CC#N)c1    > 312 µM
N#CCC(=O)c1cccc(-c2ccccc2)c1    233 µM

Exercise: For NC(=O)c1[nH]cnc1-c1ccc(Cl)c(Br)c1 , what is its reported CC50?
Solution: 213 µM

Exercise: For NC(=O)c1scnc1-c1cccc(C(=O)c2ccccc2)c1 , what is its reported CC50?
Solution: > 312 µM

Exercise: For N#CCC(=O)c1cccc(C(=O)c2ccccc2)c1 , what is its reported CC50?
Solution: 251 µM

Exercise: For N#CCC(=O)Cc1cccc(I)c1 , what is its reported CC50?
Solution: 247 µM

Exercise: For NC(=O)c1sc(N)nc1-c1cccc(Cl)c1 , what is its reported CC50?
Solution: > 312 µM

Exercise: For NC(=O)c1sc(N)nc1-c1cccc(C(=O)c2ccccc2)c1 , what is its reported CC50?
Solution: > 312 µM

Exercise: For NC(=O)c1sc(N)nc1-c1ccccc1 , what is its reported CC50?
Solution: > 312 µM

Exercise: For NC(=O)c1[nH]cnc1-c1cccc(Cl)c1 , what is its reported CC50?
Solution: > 312 µM
